- Measured target: T1, 4H656-AA
- T1 chain: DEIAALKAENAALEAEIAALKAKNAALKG
- Assay comment: two-hybrid library CCmax;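 note: natural log of median RNA to DNA barcode read ratio; higher means stronger binding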
- Cond: mean of both orientations
interaction score vs 0.2: less than gives Criterion met; not less than gives Criterion not met.

Please review the following examples before continuing.
| Binder | Group label |
| --- | --- |
| DKIAALEAENAALKAKIAALKAENAALEG [4H2283-AA] | Criterion not met |
| DKIAALEAENAALKAEIAALEAKNAALKG [4H2248-AA] | Criterion met |
| DKNAALEAKIAALKAKNAALEAKIAALKG [4H3446-AA] | Criterion met |
| DKNAALKAEIAALKAENAALEAEIAALKG [4H3666-AA] | Criterion not met |
| DEIAALEAENAALEAKNAALKAKIAALEG [4H189-AA] | Criterion met |

Prompt: Is the reported interaction score for DEIAALEAKNAALKAENAALKAKIAALKG [4H478-AA] strictly below 0.2?
Completion: Criterion met

Prompt: Then DENAALEAEIAALKAENAALEAKIAALEG [4H1109-AA] ?
Completion: Criterion met

Prompt: Then DKNAALEAKIAALKAENAALKAEIAALEG [4H3417-AA] ?
Completion: Criterion not met

Prompt: Then DKIAALKAENAALEAENAALKAEIAALEG [4H2713-AA] ?
Completion: Criterion met

Prompt: Then DKNAALKAEIAALEAKIAALKAENAALKG [4H3628-AA] ?
Completion: Criterion met

Prompt: Then DEIAALEAENAALEAENAALEAEIAALKG [4H146-AA] ?
Completion: Criterion met

Prompt: Then DKIAALKAKNAALEAEIAALEAENAALKG [4H2948-AA] ?
Completion: Criterion not met

Prompt: Then DEIAALEAKNAALKAKNAALEAEIAALEG [4H497-AA] ?
Completion: Criterion met

Prompt: Then DENAALEAEIAALKAKNAALKAEIAALKG [4H1146-AA] ?
Completion: Criterion not met
